Below, each entry is listed alongside its reported EC50 hNPY2R 100% hP (CreLuc).
Biological target: T1, human neuropeptide Y2 receptor (human, UniProt P49146 1-381)
T1 sequence (looked up): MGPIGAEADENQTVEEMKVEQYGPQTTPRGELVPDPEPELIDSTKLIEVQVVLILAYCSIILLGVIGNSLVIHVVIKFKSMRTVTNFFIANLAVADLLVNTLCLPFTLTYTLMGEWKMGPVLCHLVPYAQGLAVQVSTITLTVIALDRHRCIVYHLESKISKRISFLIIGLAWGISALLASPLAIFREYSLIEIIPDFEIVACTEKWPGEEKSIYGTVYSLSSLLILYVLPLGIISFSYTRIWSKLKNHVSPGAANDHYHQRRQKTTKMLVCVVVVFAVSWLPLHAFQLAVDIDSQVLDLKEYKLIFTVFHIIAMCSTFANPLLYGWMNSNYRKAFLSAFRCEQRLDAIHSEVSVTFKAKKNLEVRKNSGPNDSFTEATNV
Assay: cell-based or functional assay
Starred links: 1 amine or outer side, 2 acyl side, 3 side chain; linkers in the order of their positions; H or OH if unused. Non-standard residues stand in square brackets, D forms with d. Groups on a side chain read outwards from the residue. No end group written: not given here. *: point of attachment. C20 diacid = O=C(O)CCCCCCCCCCCCCCCCCCC(=O)*; C18 diacid = O=C(O)CCCCCCCCCCCCCCCCC(=O)*; γGlu = O=C(O)[C@H](CCC(=O)[*:2])N[*:1]; εLys = N[C@@H](CCCCN[*:1])C(=O)[*:2]; Aib = CC(C)(N)C(=O)O
Numeric answer only, unit nM assumed.

| Binder | Experimental value |
| --- | --- |
| Y[Aib]EGTFTSDYSI[Aib]LEKQAQ[Aib]AFVQWLIK([εLys-γGlu-γGlu-γGlu-γGlu-γGlu-C18 diacid])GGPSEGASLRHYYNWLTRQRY-NH2 (also: TFA salt) [Compound 267] | 27.6 |

The reported EC50 hNPY2R 100% hP (CreLuc) of the binder Y[Aib]EGTFTSDYSI[Aib]LEKQAQ[Aib]EFVEWLIK([γGlu-γGlu-γGlu-γGlu-C20 diacid])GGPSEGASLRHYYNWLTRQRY-NH2 (also: TFA salt) [Compound 271] was 80
